Data origin, for the record: ChEMBL document CHEMBL3244417

protocol-description: physchem
Description: Dissociation constant, pKa of the compound by UV spectrophotometric analysis
Classify as follows. Reported pKa greater than or equal to 7: Criterion met. Reported pKa below: Criterion not met.

compound	cat
COc1cc(NS(C)(=O)=O)ccc1Nc1c2ccccc2nc2c(C(=O)NCC(N)=O)cccc12	Criterion not met
CCCCCS(=O)(=O)Nc1ccc(Nc2c3ccccc3nc3cc(NC(C)=O)ccc23)c(OC)c1	Criterion met
CCCS(=O)(=O)Nc1ccc(Nc2c3ccccc3nc3cc(NC(C)=O)ccc23)c(OC)c1	Criterion met
CCCCCS(=O)(=O)Nc1ccc(Nc2c3ccccc3nc3cc(NC(C)=O)ccc23)cc1	Criterion met
NC(=O)CCCCCc1ccc(Nc2c3ccccc3nc3ccccc23)cc1	Criterion met
COc1cc(NS(C)(=O)=O)ccc1Nc1c2ccccc2nc2c(C(N)=O)cccc12	Criterion not met
NC(=O)CCCCCCc1ccc(Nc2c3ccccc3nc3ccccc23)cc1	Criterion met
COc1cc(NS(C)(=O)=O)ccc1Nc1c2ccccc2nc2c(C(=O)NCC(O)CO)cccc12 (stereo not given)	Criterion not met
CCCCCCS(=O)(=O)Nc1ccc(Nc2c3ccccc3nc3cc(NC(C)=O)ccc23)c(OC)c1	Criterion met
